target: α1 receptor; assay: binding, [^3 H]Prazosin; conditions: α1, [^3 H]Prazosin
A collection of compounds and their measured Ki

Dear colleague, please send me the reported Ki for C#CCN(C)C[C@@H]1C=C2c3cccc4[nH]cc(c34)C[C@H]2N(C)C1 when you can.
245 nM

Now look at this one.
// fetch Ki given entry C#CCN(C)C(=O)[C@@H]1C=C2c3cccc4[nH]c(Br)c(c34)C[C@H]2N(C)C1
29 nM

----------
Target: 5-HT2 receptor (Homo sapiens)
Sequence (P28223 whole entry): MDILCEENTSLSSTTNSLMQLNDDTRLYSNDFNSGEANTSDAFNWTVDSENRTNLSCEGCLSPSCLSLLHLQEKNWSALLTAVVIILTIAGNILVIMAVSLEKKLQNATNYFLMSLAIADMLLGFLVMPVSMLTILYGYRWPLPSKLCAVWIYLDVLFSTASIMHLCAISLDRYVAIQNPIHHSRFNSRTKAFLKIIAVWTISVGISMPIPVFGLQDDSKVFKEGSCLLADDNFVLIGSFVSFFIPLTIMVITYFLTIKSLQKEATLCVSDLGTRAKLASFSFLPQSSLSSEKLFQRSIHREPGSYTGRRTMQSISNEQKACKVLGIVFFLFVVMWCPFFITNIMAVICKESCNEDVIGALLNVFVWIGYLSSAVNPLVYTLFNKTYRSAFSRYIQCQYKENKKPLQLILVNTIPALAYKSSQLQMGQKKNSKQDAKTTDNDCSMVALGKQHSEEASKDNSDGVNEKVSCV
Assay: biochemical
Format: binding
Text: Binding affinities of the compounds of Examples 1
Endpoint Label: Ki
Write the quantity with the unit trailing the number.

Please list Ki recorded for the compound C#CCN(C)C[C@@H]1C=C2c3cccc4[nH]cc(c34)C[C@H]2N(C)C1 [Example 8]
10 nM

----------
test system: pentobarbital-anesthetized normotensive rats; test: blood pressure and heart rate in pentobarbital-anesthetized normotensive rats; type: in vivo, rat; settings: 450 μg/kg i.v.; vs initial level
Endpoint Label: reduction in heart rate (%)
The answer is to be given in %; state only the numeric part.

// fetch reduction in heart rate for C#CCN(C)C(=O)[C@@H]1C=C2c3cccc4[nH]c(Br)c(c34)C[C@H]2N(C)C1 ; system: pentobarbital-anesthetized normotensive rats
10

Name the value of reduction in heart rate reported for C#CCNC(=O)[C@@H]1C=C2c3cccc4[nH]c(Br)c(c34)C[C@H]2N(C)C1 when tested on pentobarbital-anesthetized normotensive rats.
5

Next compound, please.
Specify reduction in heart rate for C#CCN(C)C(=O)[C@@H]1C=C2c3cccc4[nH]cc(c34)C[C@H]2N(C)C1 , system pentobarbital-anesthetized normotensive rats.
20

----------
system: isolated rabbit thoracic aorta; assay: constriction of the isolated rabbit thoracic aorta; conditions: Oryctolagus cuniculus; vasoconstriction; read-out: EC50
Endpoint Label: EC50 (nM)
Lab book: enter the figure in nM, no units written.

Let me know recorded EC50 for C#CCN(C)C(=O)[C@@H]1C=C2c3cccc4[nH]cc(c34)C[C@H]2N(C)C1 , thanks.
390
